- TARGET_SYSTEM: human kinase Mps-1 (Homo sapiens)
- Construct: N-terminally GST-tagged human full length recombinant Mps-1 kinase; GST (N); purchased Invitrogen, Karslruhe, Germany PV4071
- TEST_PROTOCOL: Mps-1 kinase assay (TR-FRET)
- Assay type: biochemical
- EXPERIMENTAL_PARAMETERS: N-terminally GST-tagged human full length recombinant Mps-1; 10 μM ATP; 1 μM biotinylated peptide substrate; 60 min at 22° C.; read-out: Mps1 IC50
I'd be grateful if you could share measured pIC50 for these entries.
To interpret pIC50, take it as minus log10 of a concentration measured in moles per litre.

# pIC50 of `O=C(NC1CC1)c1ccc(-c2cnc3c(NCCCN4CCCC4=O)nccn23)cc1Cl` = 5.71

# pIC50 of `Cc1cc(-c2cnc3c(NCC4CC4)nccn23)ccc1C(=O)NC1CC1` = 7.73

# pIC50 of `CCNc1nccn2c(-c3ccc(C(=O)NC4CC4)c(Cl)c3)cnc12` = 4.77

# pIC50 of `CN(C)CCNc1nccn2c(-c3ccc(C(=O)NC4CC4)cc3)cnc12` = 5.39

# pIC50 of `CCCNc1nccn2c(-c3ccc(C(=O)NC4CC4)c(O)c3)cnc12` = 7.63

# pIC50 of `CCNc1nccn2c(-c3ccc(C(=O)NC4CC4)c(O)c3)cnc12` = 7.20

# pIC50 of `CCNc1nccn2c(-c3ccc(C(=O)NC4CC4)cc3)cnc12` = 6.94

# pIC50 of `O=C(NC1CC1)c1ccc(-c2cnc3c(NCc4cccnc4)nccn23)cc1Cl` = 6.29

# pIC50 of `CC(=O)NCCNc1nccn2c(-c3ccc(C(=O)NC4CC4)cc3)cnc12` = 6.02

###

- TARGET_SYSTEM: human kinase Mps-1 (Homo sapiens, UniProt P33981)
- Construct: N-terminally GST-tagged human full length recombinant Mps-1 kinase; GST (N); purchased Invitrogen, Karslruhe, Germany PV4071
- Sequence (P33981 whole entry): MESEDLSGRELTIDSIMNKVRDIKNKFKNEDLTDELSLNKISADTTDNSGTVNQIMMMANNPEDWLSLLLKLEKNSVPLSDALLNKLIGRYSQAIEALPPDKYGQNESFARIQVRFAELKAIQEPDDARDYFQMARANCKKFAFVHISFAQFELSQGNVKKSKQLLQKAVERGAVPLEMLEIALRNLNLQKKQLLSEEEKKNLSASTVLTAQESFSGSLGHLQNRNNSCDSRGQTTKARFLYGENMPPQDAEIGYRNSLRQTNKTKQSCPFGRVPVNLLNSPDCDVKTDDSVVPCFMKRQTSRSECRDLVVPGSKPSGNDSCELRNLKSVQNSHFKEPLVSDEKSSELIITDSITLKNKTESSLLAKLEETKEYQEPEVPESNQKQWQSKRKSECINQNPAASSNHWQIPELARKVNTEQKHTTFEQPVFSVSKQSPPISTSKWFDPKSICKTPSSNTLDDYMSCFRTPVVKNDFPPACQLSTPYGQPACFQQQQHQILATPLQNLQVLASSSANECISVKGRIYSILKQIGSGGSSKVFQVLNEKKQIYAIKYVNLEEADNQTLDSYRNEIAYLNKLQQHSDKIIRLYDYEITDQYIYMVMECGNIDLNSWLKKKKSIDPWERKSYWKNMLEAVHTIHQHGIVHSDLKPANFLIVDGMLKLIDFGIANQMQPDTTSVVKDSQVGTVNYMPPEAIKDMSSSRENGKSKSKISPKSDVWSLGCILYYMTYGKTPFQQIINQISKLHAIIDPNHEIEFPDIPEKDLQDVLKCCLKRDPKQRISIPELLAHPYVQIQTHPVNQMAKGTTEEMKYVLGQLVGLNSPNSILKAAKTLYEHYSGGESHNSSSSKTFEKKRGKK
- TEST_PROTOCOL: Mps-1 kinase assay (TR-FRET)
- Format: biochemical
- EXPERIMENTAL_PARAMETERS: N-terminally GST-tagged human full length recombinant Mps-1; 10 μM ATP; 1 μM biotinylated peptide substrate; 60 min at 22° C.; read-out: Mps1 IC50
// map IC50 to label using low-valued (below 50 nM), mid-valued (50 nM to below 200 nM), high-valued (200 nM or more)

Record Cc1cc(C(=O)NC2CC2)ccc1-c1cnc2c(NCC(C)C)nccn12 [Example 1-1] — which class?
mid-valued

Record O=C(NC1CC1)c1ccc(-c2cnc3c(NCc4ccccc4)nccn23)cc1O [Example 7-75] — which class?
high-valued

Record O=C(NC1CC1)c1ccc(-c2cnc3c(NCc4ccc5c(c4)OCO5)nccn23)cc1 [Example 7-18] — which class?
low-valued

Record O=C(NC1CC1)c1ccc(-c2cnc3c(NCCN4CCOCC4)nccn23)cc1 [Example 7-4] — which class?
high-valued

Record CCCNc1nccn2c(-c3ccc(C(=O)NC4CC4)c(C)c3)cnc12 [Example 7-90] — which class?
low-valued

Record COC(=O)CCNc1nccn2c(-c3ccc(C(=O)NC4CC4)cc3)cnc12 [Example 4-6] — which class?
mid-valued

Record Cc1cc(-c2cnc3c(NCC(F)(F)C(F)(F)F)nccn23)ccc1C(=O)NC1CC1 [Example 7-112] — which class?
mid-valued

Record COC(=O)CCCNc1nccn2c(-c3ccc(C(=O)NC4CC4)cc3)cnc12 [Example 4-5] — which class?
mid-valued

Record O=C(NC1CC1)c1ccc(-c2cnc3c(NCCc4cccs4)nccn23)cc1 [Example 7-21] — which class?
low-valued

Record O=C(NC1CC1)c1ccc(-c2cnc3c(NCc4ccncc4)nccn23)cc1Cl [Example 7-49] — which class?
high-valued

Record CS(=O)(=O)CCCNc1nccn2c(-c3ccc(C(=O)NC4CC4)c(Cl)c3)cnc12 [Example 7-66] — which class?
high-valued

Record O=C(NC1CC1)c1ccc(-c2cnc3c(NCCCO)nccn23)cc1 [Example 3-1] — which class?
mid-valued

Record CCCCNc1nccn2c(-c3ccc(C(=O)NC4CC4)c(Cl)c3)cnc12 [Example 7-44] — which class?
mid-valued

Record CCCCNc1nccn2c(-c3ccc(C(=O)NC4CC4)cc3)cnc12 [Example 4-7] — which class?
low-valued

Record O=C(NC1CC1)c1ccc(-c2cnc3c(NCc4ccccc4)nccn23)cc1Cl [Example 7-40] — which class?
mid-valued

Record O=C(NC1CC1)c1ccc(-c2cnc3c(NCC4CC4)nccn23)cc1Cl [Example 7-46] — which class?
mid-valued

Record O=C(NC1CC1)c1ccc(-c2cnc3c(NCCN4CCCCC4)nccn23)cc1 [Example 7-8] — which class?
high-valued
